What Fold resistance (ratio of IC50 J7-T3-1.6 to J774.2) was measured for each of the following?
Tested on: J7-T3-1.6
methodSummary: cells
Type: cell-based, mouse
experimentalConditions: after 72 h
One number for each entry, in fold.

Quick request: Fold resistance (ratio of IC50 J7-T3-1.6 to J774.2) for each listed item, please.
1. C/C(=C\c1csc(C)n1)[C@@H]1C[C@@H]2O[C@@H]2CCC[C@H](C)[C@H](O)[C@@H](C)C(=O)C(C)(C)[C@@H](O)CC(=O)O1 [EpoA, epothilone A]
2. CC[C@]1(O)C[C@@H]2CN(CCc3c([nH]c4ccccc34)[C@@](C(=O)OC)(c3cc4c(cc3OC)N(C)[C@H]3[C@@](O)(C(=O)OC)[C@H](OC(C)=O)[C@]5(CC)C=CCN6CC[C@]43[C@@H]65)C2)C1 [VBL, vinblastine]
3. CC(=O)O[C@H]1C(=O)[C@@]2(C)[C@H]([C@H](OC(=O)c3ccccc3)[C@]3(O)C[C@H](OC(=O)[C@H](O)[C@@H](NC(=O)c4ccccc4)c4ccccc4)C(C)=C1C3(C)C)[C@]1(OC(C)=O)CO[C@@H]1C[C@@H]2O [Taxol, paclitaxel]
4. C=C/C=C\[C@H](C)[C@H](OC(N)=O)[C@@H](C)[C@H](O)[C@@H](C)C/C(C)=C\[C@H](C)[C@@H](O)[C@@H](C)/C=C\[C@@H](O)C[C@@H]1OC(=O)[C@H](C)[C@@H](O)[C@H]1C [Disco, discodermolide]

Response given:
1: 16; 2: 127.8; 3: 268.7; 4: 29.2

Challenge: Looking for the measured Fold resistance (ratio of IC50 J7-T3-1.6 to J774.2) of C/C(=C\c1csc(C)n1)[C@@H]1C[C@@H]2O[C@]2(C)CCC[C@H](C)[C@H](O)[C@@H](C)C(=O)C(C)(C)[C@@H](O)CC(=O)O1 [EpoB, epothilone B] , can you help?
Response given: 30
